Overview of reported cell count across a group of compounds:
assay: viability loss with induced miR-34 in A549 – imaging, A549 dox-inducible miR-34, nuclei and caspase counts, primary screen (AID 1347080); conditions: A549 miR-34 inducible, Hoechst nuclei count, 48 h; measured here: total cells without miR-34 induction
// keep it numeric: no unit symbol after the value

Consider the reported cell count for these compounds:
O=C(O)c1ccc(-c2ccc3cc(C45CC6CC(CC(C6)C4)C5)c(O)cc3c2)cc1 | 1740
CCN1/C(=C/C(C)=O)Sc2ccc(OC)cc21 | 7040
CNC(=O)Oc1ccc2c(c1)C1(C)CCN(C)C1N2C (stereo unspecified) | 10000
COc1cc2c(cc1OC)C1CC(=O)C(CC(C)C)CN1CC2 (stereo unspecified) | 9800
c1cc(-c2cnn3cc(-c4ccc(N5CCNCC5)cc4)cnc23)c2cccnc2c1 | 212

IN: Requested field: cell count. Item: CNC(=O)c1cc(COc2nnc(Nc3ccc(Cl)cc3)c3ccoc23)ccn1
OUT: 5820

IN: Returns the measured cell count for the input compound. Input: CCCCCCCCCCCCCCCCC(=O)NCCO
OUT: 5800

IN: Which cell count is listed for Cc1cnc(-c2ccccc2C(C)C)nc1NCc1ccc(-n2ccnn2)cc1 ?
OUT: 8340

---

assay: drug combination growth inhibition, ovarian cancer – cell-based, oncology-focused library, rucaparib conditional, profiling panel (AID 1508598); conditions: patient-derived ovarian cancer cells, CellTiter-Glo viability, 144 h; at 0.0781 µM; OCI-C5x cells; with rucaparib 10 µM; 100% = cells with rucaparib alone
Active and inactive are the calls of the source.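 How the source made its calls: active means normalized viability below 100% at a tested concentration; inactive means the rest.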
Answer with one of the outcomes given here: yes (1) for active, no (0) for inactive

Worked examples, 6 compounds total:
CC(=O)c1c(C)c2cnc(Nc3ccc(N4CCNCC4)cn3)nc2n(C2CCCC2)c1=O | no (0)
CNC(=O)c1cc(COc2nnc(Nc3ccc(Cl)cc3)c3ccoc23)ccn1 | no (0)
C#Cc1cccc(Nc2ncnc3cc(OC)c(OCCCCCCC(=O)NO)cc23)c1 | no (0)
CCCCCCCCc1ccc(CCC(N)(CO)CO)cc1 | no (0)
O=C(Nc1cccc(Cl)c1)Nc1ncc(CCNc2ncnc3ccsc23)s1 | yes (1)
CCN(CC)CCCCNc1ncc2cc(-c3cc(OC)cc(OC)c3)c(NC(=O)NC(C)(C)C)nc2n1 | no (0)

IN: State the result this test recorded for CC(C)C[C@H](NC(=O)CNC(=O)c1cc(Cl)ccc1Cl)B1OC(=O)CC(CC(=O)O)(C(=O)O)O1 (some centres undefined) .
OUT: no (0)

IN: What did this assay record as the result for Cc1cnc(NC(=O)Nc2cc(Br)c(C)cc2OC[C@@H]2CNCCO2)cn1 ?
OUT: no (0)

IN: // param item: CC[C@@H]1C(=O)N(C)c2cnc(Nc3ccc(C(=O)NC4CCC(N5CCN(CC6CC6)CC5)CC4)cc3OC)nc2N1C(C)C (some centres undefined) ; yields the recorded call
OUT: yes (1)

---

test: P. berghei load reduction in hepatocytes – cell-based, HepG2, luciferase luminescence, HepG2 viability, primary screen (AID 624349);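 also: 100% = mean of DMSO negative control wells on the same plate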; conditions: P. berghei liver stage in HepG2, luciferase luminescence, concentration not given here; measured here: HepG2 viability without parasites
Item-by-item account of viability
Write the answer as a number in %, unit excluded.

Recorded results for 3 molecules are shown here.
NC(=Nc1ccccc1)NC(=O)c1nc(Cl)c(N)nc1N | 98
C=CC[N+]1([C@H]2C[C@H]3[C@@H]4CC[C@H]5C[C@H](O)[C@@H](N6CCOCC6)C[C@]5(C)[C@H]4CC[C@]3(C)[C@H]2OC(C)=O)CCCC1 | 138
COc1ccc2c(c1)c(C1=C(c3c[nH]c4ccccc34)C(=O)NC1=O)cn2CCCN(C)C | 93.9

IN: // viability lookup, key: CNCC(O)C(O)C(O)C(O)CO (stereo unspecified)
OUT: 101

IN: Any idea what its viability is? The molecule is O=C1NC(=O)c2cc(Nc3ccc(F)cc3)c(Nc3ccc(F)cc3)cc21
OUT: 70.7

IN: Please give the measured viability for this molecule: NC(=O)c1cccc(-c2cc(Nc3ccc(OC(F)(F)F)cc3)ncn2)c1
OUT: 100

---

test: growth inhibition, single agents and combos, HD-MB03, cell-based, BGB or cisplatin IC20 combos, synergistic combos for chromothripsis tumors (AID 1671455); settings: HD-MB03 medulloblastoma cells, measured here: combo with cisplatin at IC20, at 0.5 µM, stronger effect = higher value;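 also: 0% = vehicle DMSO and 100% = high DMSO as cytotoxic control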
The following compounds are listed with their measured inhibition values.
Express it in %; write the number only.

Record excerpt, results attached:
O=C(O)CO.[NH2-].[NH2-].[Pt+2] | -6.47
O=c1[nH]c([C@@H]2CCCN2)nc2c1oc1ccc(Cl)cc12 | -27.5
CN(C)CCN1C(=O)c2cccc3cc(N)cc(c23)C1=O | 14.4
CN(C)c1ccc(C(=O)NCCCCCCC(=O)NO)cc1 | 81.5

IN: What does the data say about its inhibition? Entry: N=C1CCCN1Cc1[nH]c(=O)[nH]c(=O)c1Cl
OUT: -6.6

IN: May I ask what inhibition has been recorded for O=C(/C=C/c1ccc(CN(CCO)CCc2c[nH]c3ccccc23)cc1)NO ?
OUT: 100

IN: Please report the recorded inhibition for O=C(CCCCCCNC(=O)c1cnc(N(c2ccccc2)c2ccccc2Cl)nc1)NO .
OUT: 8.58

IN: Quick one: inhibition for CN(C)C/C=C/C(=O)Nc1ccc(C(=O)Nc2cccc(Nc3ncc(Cl)c(-c4c[nH]c5ccccc45)n3)c2)cc1 ?
OUT: 71.3

IN: Any idea what its inhibition is? The compound is COc1ccc(C(=O)C2CCN(CC(=O)N(Cc3nc4c(c(=O)[nH]3)COCC4)CC3CC3)CC2)cc1
OUT: -4.57

IN: Item Nc1ccccc1NC(=O)c1ccc(CNc2nccc(-c3cccnc3)n2)cc1 has what recorded inhibition?
OUT: 76.7

IN: What does the data say about its inhibition? Entry: C[C@]12CCCN1CC1=NNC(=O)c3cc(F)cc4[nH]c2c1c34
OUT: 6.94

IN: Could you share which inhibition value was measured for NCCOc1cc(C(=O)Nc2cc(OCCN)c3ccccc3n2)nc(C(=O)Nc2cc(OCCN)c3ccccc3n2)c1 ?
OUT: -20.4

IN: Would you kindly share the measured inhibition for Nc1ccc(-c2ccc3ncc4ccc(=O)n(-c5cccc(C(F)(F)F)c5)c4c3c2)cn1 ?
OUT: 69.9

IN: Query: inhibition; subject: CN[C@@H]1CN(c2ccc3c(=O)c(C(=O)O)cn(-c4nccs4)c3n2)C[C@H]1OC
OUT: 74.4

IN: Could you share which inhibition value was measured for Cc1ccc([N+](=O)[O-])cc1S(=O)(=O)N(C)/N=C/c1cnc2ccc(Br)cn12 ?
OUT: 81.5

---

assay: growth inhibition, single agents and combos, ICB984, cell-based, cisplatin or BGB combos, synergistic combos for chromothripsis tumors (AID 1671451); conditions: ICB984 medulloblastoma cells, drug combinations, measured here: 5 uM single agent, at 5 µM, stronger effect = higher value;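 also: cells exposed for 96 hours before readout; 0% = vehicle DMSO and 100% = killing by high DMSO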
Please enter class 1 where inhibition is greater than or equal to -10%, and class 0 where it is lower.

O=C(COc1cccc2c(=O)[nH]ccc12)c1ccccc1 | class 1
Nc1ncnc2c1c(-c1cnc3[nH]ccc3c1)nn2C1CCCC1 | class 1
Nc1ccccc1NC(=O)c1ccc(CNc2nccc(-c3cccnc3)n2)cc1 | class 0
CC(=O)Nc1ccc(C(=O)Nc2ccccc2N)cc1 | class 0

IN: Does inhibition meet or surpass -10% for CC(C)OC(=O)[C@H](C)N[P@](=O)(OC[C@H]1O[C@@H](n2ccc(=O)[nH]c2=O)[C@](C)(F)[C@@H]1O)Oc1ccccc1 ?
OUT: class 0

IN: Check the entry O=c1cc(N2CCOCC2)oc2c(-c3cccc4c3sc3ccccc34)cccc12 : does inhibition equal or exceed -10%?
OUT: class 1

IN: Is the recorded value of inhibition equal to or greater than -10% for this compound? Cc1ccc([N+](=O)[O-])cc1S(=O)(=O)N(C)/N=C/c1cnc2ccc(Br)cn12
OUT: class 0

IN: Kindly determine if inhibition recorded for COc1ccc(C(=O)C2CCN(CC(=O)N(Cc3nc4c(c(=O)[nH]3)COCC4)CC3CC3)CC2)cc1 is above or exactly -10%.
OUT: class 0

IN: Item CN(C)c1ccc(C(=O)NCCCCCCC(=O)NO)cc1 with inhibition of -10% or above?
OUT: class 0

---

Readings of z-score for the listed compounds
assay: MELAS cybrid and Rieske KO viability enhancers – cell-based, MELAS cybrids, Rieske KO mouse fibroblasts, CellTiter-Glo, primary screen (AID 1508586); settings: Rieske KO mouse fibroblast survival, low glucose, CellTiter-Glo 72 h;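 also: z relative to plate mean and SD of compound and empty wells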

COc1ccc(-c2cnc3c(-c4cccc5ncccc45)cnn3c2)cc1 | -0.688
CCCS(=O)(=O)Nc1ccc(F)c(C(=O)c2c[nH]c3ncc(-c4ccc(Cl)cc4)cc23)c1F | -0.424
Cc1c(NC(=O)OCC2COCCN2)cn2ncnc(Nc3ccc4c(cnn4Cc4cccc(F)c4)c3)c12 (centres undefined) | 0.355
C[C@@H](O)[C@@H]1NC(=O)[C@H](CCCCN)NC(=O)[C@@H](Cc2c[nH]c3ccccc23)NC(=O)[C@H](Cc2ccccc2)NC(=O)[C@@H](NC(=O)[C@H](N)Cc2ccccc2)CSSC[C@@H](C(=O)N[C@H](CO)[C@@H](C)O)NC1=O | -0.498

IN: Given the compound Cc1ccc(Sc2ccccc2N2CCNCC2)c(C)c1 , what is its reported z-score?
OUT: -1.42

IN: What value of z-score has been reported for the following compound? O=C(O)C1(Cc2cccc(Nc3nccs3)n2)CCC(Oc2cccc(Cl)c2F)CC1 (centres undefined)
OUT: 0.69

IN: Returns the measured z-score for the input compound. Input: Cc1noc(-c2ccc(CSCCC(=O)O)cc2)c1NC(=O)OC(C)c1ccccc1Cl (centres undefined)
OUT: 0.718

IN: For NC(=O)c1cccc(-c2cccc(OC(=O)NC3CCCCC3)c2)c1 , what is its reported z-score?
OUT: -0.11

IN: Would you mind telling me what z-score value was observed for CCN(c1cc(-c2ccc(CN3CCOCC3)cc2)cc(C(=O)NCc2c(C)cc(C)[nH]c2=O)c1C)C1CCOCC1 ?
OUT: -0.95

The measured values listed here are drawn from PubChem BioAssay.
